FYI, the data here is from the supplement of paper PMC10724198.

Let's look at some sequences and their measured protein stability index.
- Tested on: Saccharomyces cerevisiae
- assay-overview: protein stability index of tFT-peptide fusion (C-terminal peptide) (PSI (0-1 scale)); higher = more stable (slower turnover)
- measurement-context: genetic background: cdc53-1; temperature: 37 C

Please review the entries below; each comes with its answer.
For LFFSPRRLSPPT on Saccharomyces cerevisiae, measured protein stability index was 0.753

For MFWKFVFRGFWF on Saccharomyces cerevisiae, measured protein stability index was 0.739

For MFLHLGLFIMSH on Saccharomyces cerevisiae, measured protein stability index was 0.407

New cases:
For WQSFRDKLIKGN on Saccharomyces cerevisiae, measured protein stability index was 0.716

For YLGSLQVPVHLF on Saccharomyces cerevisiae, measured protein stability index was 0.725

For IHRSPLTLPLLV on Saccharomyces cerevisiae, measured protein stability index was 0.584

For CFCVSVHVWLLM on Saccharomyces cerevisiae, measured protein stability index was 0.238

For LLLVSLAVPLSL on Saccharomyces cerevisiae, measured protein stability index was 0.569

For VCNYRKLIWKHH on Saccharomyces cerevisiae, measured protein stability index was 0.661

---

- System: Saccharomyces cerevisiae
- assay-overview: protein stability index of tFT-peptide fusion (C-terminal peptide) (PSI (0-1 scale)); higher = more stable (slower turnover)
- measurement-context: genetic background: wild type; temperature: 30 C
assay-metric: protein stability index
Could you keep your reply to the number by itself?

For AFEELYMGNCND [SIR1 C-terminal 12 aa] on Saccharomyces cerevisiae, measured protein stability index was 0.674

For YNKLESNLQIFM [ABZ1 C-terminal 12 aa] on Saccharomyces cerevisiae, measured protein stability index was 0.744

For LKRISDIQADSS [PET494 C-terminal 12 aa] on Saccharomyces cerevisiae, measured protein stability index was 0.699

New cases:
For LRTVASRLKERY [PNO1 C-terminal 12 aa] on Saccharomyces cerevisiae, measured protein stability index was 0.706

For QVTWHKHSPRIQ [YKL202W C-terminal 12 aa] on Saccharomyces cerevisiae, measured protein stability index was 0.704

For RVLNNLIVSHNK [MOT3 C-terminal 12 aa] on Saccharomyces cerevisiae, measured protein stability index was 0.735

For DWLIDVIKEEQL [ARL1 C-terminal 12 aa] on Saccharomyces cerevisiae, measured protein stability index was 0.695

For QAIEDKLNKMSR [BIL1 C-terminal 12 aa] on Saccharomyces cerevisiae, measured protein stability index was 0.683

For SSKKNNKFRRIR [CST9 C-terminal 12 aa] on Saccharomyces cerevisiae, measured protein stability index was 0.714

For AYETLTGSKWSH [ADE1 C-terminal 12 aa] on Saccharomyces cerevisiae, measured protein stability index was 0.704

For VDYKTEPLQPLI [RGI2 C-terminal 12 aa] on Saccharomyces cerevisiae, measured protein stability index was 0.678

---

- Tested on: Saccharomyces cerevisiae
- assay-overview: protein stability index of tFT-peptide fusion (C-terminal peptide) (PSI (0-1 scale)); higher = more stable (slower turnover)
- measurement-context: genetic background: wild type; temperature: 30 C
Assign TRUE to entries whose protein stability index meets or exceeds 0.7; assign FALSE to the rest.

As a guide, the following entries are already answered.
Could you please find out whether GPGPRLSCLVPT has protein stability index that meets 0.7 or exceeds it? TRUE

Could you please find out whether NDKPKKKYRKTR has protein stability index that meets 0.7 or exceeds it? FALSE

Could you please find out whether VLEGAWPGAEAV has protein stability index that meets 0.7 or exceeds it? TRUE

Could you please find out whether SCNILPRFSPLL has protein stability index that meets 0.7 or exceeds it? TRUE

Could you please find out whether GVGDELIRAEQT has protein stability index that meets 0.7 or exceeds it? TRUE

New cases:
Could you please find out whether SFLWRRSYFVFR has protein stability index that meets 0.7 or exceeds it? FALSE

Could you please find out whether PLPLPFGPPSLP has protein stability index that meets 0.7 or exceeds it? TRUE

Could you please find out whether SALTPCPPPYSH has protein stability index that meets 0.7 or exceeds it? FALSE

Could you please find out whether VLLVSVFVATLL has protein stability index that meets 0.7 or exceeds it? FALSE

Could you please find out whether CCADPWRIARPW has protein stability index that meets 0.7 or exceeds it? TRUE

Could you please find out whether NTQPSNRTQRKY has protein stability index that meets 0.7 or exceeds it? FALSE

Could you please find out whether GSVGSRIFLVHV has protein stability index that meets 0.7 or exceeds it? FALSE
